Target: LecA (Pseudomonas aeruginosa)
Construct: made in house
Sequence (Q05097 whole entry): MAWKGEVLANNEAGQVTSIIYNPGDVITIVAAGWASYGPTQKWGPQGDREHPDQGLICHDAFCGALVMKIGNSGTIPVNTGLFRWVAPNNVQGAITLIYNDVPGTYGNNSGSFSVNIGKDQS
Experiment: surface plasmon resonance (SPR) direct binding to immobilised LecA
ENDPOINT: koff (s⁻¹)
Give the quantity in s⁻¹, number only.

| MOLECULE | koff / s⁻¹ |
| --- | --- |
| O=C(/C=C/c1ccc(O[C@@H]2O[C@H](CO)[C@H](O)[C@H](O)[C@H]2O)cc1)Nc1ccc(OCCCOc2ccc(NC(=O)/C=C/c3ccc(O[C@@H]4O[C@H](CO)[C@H](O)[C@H](O)[C@H]4O)cc3)cc2)cc1 [Compound J18] | 0.00251 |

Attention now turns to another entry.
Any idea what koff was measured for O=C(CCc1ccc(O[C@@H]2O[C@H](CO)[C@H](O)[C@H](O)[C@H]2O)cc1)Nc1ccc(OCCCOc2ccc(NC(=O)CCc3ccc(O[C@@H]4O[C@H](CO)[C@H](O)[C@H](O)[C@H]4O)cc3)cc2)cc1 [Compound J30] ? 0.00345

====

# Kd values compiled below
Target: LecA (Pseudomonas aeruginosa)
Construct: made in house
Experiment: isothermal titration microcalorimetry (ITC)
Assay type: binding
Settings: ITC Kd, Table 1; TBS/Ca2+ buffer, 25° C.

| MOLECULE | ENDPOINT | RESULT |
| --- | --- | --- |
| COc1ccc(C=NNC(=O)c2cccc(OC3OC(CO)C(O)C(O)C3O)c2)cc1 (centres unmarked) | Kd | 2.4 µM |

Attention now turns to another entry.
Any idea what Kd was measured for COc1ccc(C=NNC(=O)c2ccc(OC3OC(CO)C(O)C(O)C3O)cc2)cc1 (centres unmarked) ? 6.11 µM

====

Biological target: LecA (Pseudomonas aeruginosa)
Construct: made in house
Test: surface plasmon resonance (SPR) direct binding to immobilised LecA
# pKd values compiled below
# log scale: pKd equals minus log10 of the concentration in mol/L

Before answering, review these 3 worked examples.
| MOLECULE | RESULT |
| --- | --- |
| O=C(NN=Cc1ccc(OCCCOc2ccc(C=NNC(=O)c3ccc(OC4OC(CO)C(O)C(O)C4O)cc3)cc2)cc1)c1ccc(OC2OC(CO)C(O)C(O)C2O)cc1 (stereo not shown) [Compound D6p] | 7.30 |
| COc1ccc(C=NNC(=O)c2ccc(OC3OC(CO)C(O)C(O)C3O)cc2)cc1 (stereo not shown) [Compound F6p] | 5.32 |
| O=C(NN=Cc1ccc(Oc2ccc(C=NNC(=O)c3ccc(OC4OC(CO)C(O)C(O)C4O)cc3)cc2)cc1)c1ccc(OC2OC(CO)C(O)C(O)C2O)cc1 (stereo not shown) [Compound A6p] | 7.66 |

For the record O=C(NCc1cn(CCOCCOCCOCCNC(=S)Nc2ccc3c(c2)C(=O)OC32c3ccc(O)cc3Oc3cc(O)ccc32)nn1)c1ccc(C(Oc2ccc(/C=N/NC(=O)c3ccc(O[C@@H]4OC(CO)[C@H](O)C(O)C4O)cc3)cc2)Oc2ccc(/C=N/NC(=O)c3ccc(O[C@@H]4OC(CO)[C@H](O)C(O)C4O)cc3)cc2)cc1 (stereo partly shown) [Compound 13] , what value of pKd is listed for LecA (Pseudomonas aeruginosa)? 7.43

For the record O=C(NN=Cc1ccc(OCCOc2ccc(C=NNC(=O)c3ccc(OC4OC(CO)C(O)C(O)C4O)cc3)cc2)cc1)c1ccc(OC2OC(CO)C(O)C(O)C2O)cc1 (stereo not shown) [Compound C6p] , what value of pKd is listed for LecA (Pseudomonas aeruginosa)? 7.38

For the record COc1ccc(C=NNC(=O)c2cccc(OC3OC(CO)C(O)C(O)C3O)c2)cc1 (stereo not shown) [Compound F6m] , what value of pKd is listed for LecA (Pseudomonas aeruginosa)? 5.31

Origin of the recorded values: patent US12545699B2
